- study.system: UniProt:P80404
- Sequence (P80404 whole entry): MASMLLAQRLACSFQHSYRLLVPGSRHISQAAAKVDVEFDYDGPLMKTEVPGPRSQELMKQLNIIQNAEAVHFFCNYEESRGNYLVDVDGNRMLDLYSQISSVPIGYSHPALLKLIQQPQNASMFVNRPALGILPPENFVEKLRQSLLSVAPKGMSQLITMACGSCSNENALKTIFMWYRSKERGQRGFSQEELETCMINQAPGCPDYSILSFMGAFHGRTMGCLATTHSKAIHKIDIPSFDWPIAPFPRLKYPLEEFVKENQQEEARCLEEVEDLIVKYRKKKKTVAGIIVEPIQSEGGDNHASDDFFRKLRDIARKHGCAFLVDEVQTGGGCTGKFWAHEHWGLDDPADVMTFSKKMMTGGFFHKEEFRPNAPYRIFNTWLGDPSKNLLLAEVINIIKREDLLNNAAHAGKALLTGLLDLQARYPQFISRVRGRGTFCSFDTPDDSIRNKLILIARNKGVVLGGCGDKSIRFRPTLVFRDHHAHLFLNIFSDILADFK
Quick list: IC50 per entry.

>  <compound>
COc1cc(CN=O)ccc1O [4-hydroxy-3-methoxybenzaldehyde oxime]

>  <IC50>
> 1 mM

$$$$
>  <compound>
O=NCc1ccc(O)cc1 [4-hydroxybenzaldehyde oxime]

>  <IC50>
> 1 mM

$$$$

* * *

Please consider the recorded pIC50 for Succinate-semialdehyde dehydrogenase, mitochondrial (Homo sapiens) in what follows.
pIC50: −log10 of the molar value.
assay.endpoint: pIC50

>  <compound>
O=NCc1ccc(O)cc1 [4-hydroxybenzaldehyde oxime]

>  <assay.endpoint>
pIC50

>  <result>
< 3.00

$$$$
>  <compound>
COc1cc(CN=O)ccc1O [4-hydroxy-3-methoxybenzaldehyde oxime]

>  <assay.endpoint>
pIC50

>  <result>
< 3.00

$$$$
